The origin of these recorded values is ChEMBL document CHEMBL1127343.

system: Staphylococcus aureus; experiment: In vitro antibacterial activity was measured on gram positive bacteria Staphylococcus aureus smith cell lines; format: functional
endpoint label: MIC (µg/mL)
Write the answer as a number in µg/mL, unit excluded.

Worked examples, 5 compounds total:
1. CCN(CC)CC(=O)Nc1ccc2c(c1O)C(=O)C1=C(O)[C@]3(O)C(O)=C(C(N)=O)C(=O)[C@@H](N(C)C)C3[C@@H](O)C1[C@H]2C (stereo partly specified) : 0.25
2. CN(C)[C@@H]1C(O)=C(C(N)=O)C(=O)[C@@]2(O)C(O)=C3C(=O)c4c(O)cccc4C[C@H]3C[C@@H]12 : 0.25
3. C[C@H](N)C(=O)Nc1ccc2c(c1O)C(=O)C1=C(O)[C@]3(O)C(O)=C(C(N)=O)C(=O)[C@@H](N(C)C)C3[C@@H](O)C1[C@H]2C (stereo partly specified) : 2
4. CC(C)C[C@H](N)C(=O)Nc1ccc2c(c1O)C(=O)C1=C(O)[C@]3(O)C(O)=C(C(N)=O)C(=O)[C@@H](N(C)C)C3[C@@H](O)C1[C@H]2C (stereo partly specified) : 0.5
5. C[C@H]1c2ccc(NC(=O)[C@@H]3CCCN3)c(O)c2C(=O)C2=C(O)[C@]3(O)C(O)=C(C(N)=O)C(=O)[C@@H](N(C)C)C3[C@@H](O)C21 (stereo partly specified) : 2

Now take the following compound into account.
The reported MIC of the compound C[C@H]1c2ccc(NC(=O)CNC(C)(C)C)c(O)c2C(=O)C2=C(O)[C@]3(O)C(O)=C(C(N)=O)C(=O)[C@@H](N(C)C)C3[C@@H](O)C21 (stereo partly specified) was 0.5

###

test system: Escherichia coli; experiment: In vitro antibacterial activity was measured on gram negative bacteria Escherichia coli UBMS 90-5 sensitive cell lines; assay type: functional
As shown below, each of these compounds has a reported MIC value.
Write the answer as a number in µg/mL, unit excluded.

1. C[C@H]1c2ccc(NC=O)c(O)c2C(=O)C2=C(O)[C@]3(O)C(O)=C(C(N)=O)C(=O)[C@@H](N(C)C)C3[C@@H](O)C21 (stereo partly specified) : 2
2. C[C@H]1c2ccc(NC(=O)[C@@H](N)Cc3ccc(O)cc3)c(O)c2C(=O)C2=C(O)[C@]3(O)C(O)=C(C(N)=O)C(=O)[C@@H](N(C)C)C3[C@@H](O)C21 (stereo partly specified) : 8
3. CC(C)C[C@H](N)C(=O)Nc1ccc2c(c1O)C(=O)C1=C(O)[C@]3(O)C(O)=C(C(N)=O)C(=O)[C@@H](N(C)C)C3[C@@H](O)C1[C@H]2C (stereo partly specified) : 1
4. CC(C)[C@H](N)C(=O)Nc1ccc2c(c1O)C(=O)C1=C(O)[C@]3(O)C(O)=C(C(N)=O)C(=O)[C@@H](N(C)C)C3[C@@H](O)C1[C@H]2C (stereo partly specified) : 2

Form field MIC for item CNCC(=O)Nc1ccc2c(c1O)C(=O)C1=C(O)[C@]3(O)C(O)=C(C(N)=O)C(=O)[C@@H](N(C)C)C3[C@@H](O)C1[C@H]2C (stereo partly specified) on Escherichia coli: 8

###

As shown below, each of these compounds has a reported MIC value.
tested on: Staphylococcus aureus; assay: In vitro antibacterial activity was measured on gram positive bacteria Staphylococcus aureus smith cell lines; format: functional
Write the answer as a number in mg/L, unit excluded.

1. C[C@H]1c2ccc(NC(=O)[C@@H](N)CCC(N)=O)c(O)c2C(=O)C2=C(O)[C@]3(O)C(O)=C(C(N)=O)C(=O)[C@@H](N(C)C)C3[C@@H](O)C21 (stereo partly specified) : 4
2. CN(C)CC(=O)Nc1ccc2c(c1O)C(=O)C1=C(O)[C@]3(O)C(O)=C(C(N)=O)C(=O)[C@@H](N(C)C)[C@@H]3CC1C2 (stereo partly specified) : 0.12
3. CNCC(=O)Nc1ccc2c(c1O)C(=O)C1=C(O)[C@]3(O)C(O)=C(C(N)=O)C(=O)[C@@H](N(C)C)C3[C@@H](O)C1[C@H]2C (stereo partly specified) : 8
4. CN(C)c1ccc(O)c2c1CC1C[C@H]3[C@H](N(C)C)C(=O)C(C(N)=O)=C(O)[C@@]3(O)C(=O)C1=C2O (stereo partly specified) : 0.12
5. CC(=O)Nc1ccc2c(c1O)C(=O)C1=C(O)[C@]3(O)C(O)=C(C(N)=O)C(=O)[C@@H](N(C)C)C3[C@@H](O)C1[C@H]2C (stereo partly specified) : 0.5

Now take the following compound into account.
The reported MIC of the compound C[C@H]1c2ccc(NC(=O)CN3CCCCC3)c(O)c2C(=O)C2=C(O)[C@]3(O)C(O)=C(C(N)=O)C(=O)[C@@H](N(C)C)C3[C@@H](O)C21 (stereo partly specified) was 0.25

###

test system: Staphylococcus aureus; assay: In vitro antibacterial activity was measured on gram positive bacteria Staphylococcus aureus UBMS 88-7 tet-k(efflux resistance) cell lines; type: functional
endpoint label: MIC (µg/mL)
Write the answer as a number in µg/mL, unit excluded.

The reported MIC of the compound C[C@H]1c2ccc(NC(=O)[C@@H](N)Cc3ccccc3)c(O)c2C(=O)C2=C(O)[C@]3(O)C(O)=C(C(N)=O)C(=O)[C@@H](N(C)C)C3[C@@H](O)C21 (stereo partly specified) was 4

The reported MIC of the compound CN(C)CC(=O)Nc1cc(N(C)C)c2c(c1O)C(=O)C1=C(O)[C@]3(O)C(O)=C(C(N)=O)C(=O)[C@@H](N(C)C)[C@@H]3CC1C2 (stereo partly specified) was 2

The reported MIC of the compound C[C@H]1c2ccc(NC(=O)CN3CCCC3)c(O)c2C(=O)C2=C(O)[C@]3(O)C(O)=C(C(N)=O)C(=O)[C@@H](N(C)C)C3[C@@H](O)C21 (stereo partly specified) was 4

The reported MIC of the compound CCN(CC)CC(=O)Nc1ccc2c(c1O)C(=O)C1=C(O)[C@]3(O)C(O)=C(C(N)=O)C(=O)[C@@H](N(C)C)C3[C@@H](O)C1[C@H]2C (stereo partly specified) was 1

The reported MIC of the compound CN(C)CC(=O)Nc1ccc2c(c1O)C(=O)C1=C(O)[C@]3(O)C(O)=C(C(N)=O)C(=O)[C@@H](N(C)C)[C@@H]3CC1C2 (stereo partly specified) was 1

###

tested on: Staphylococcus aureus; assay: In vitro antibacterial activity was measured on gram positive bacteria Staphylococcus aureus UBMS 88-7 tet-k(efflux resistance) cell lines; assay type: functional
As shown below, each of these compounds has a reported MIC value.
Write the answer as a number in µg/mL, unit excluded.

1. C[C@H]1c2ccc(NC(=O)[C@@H](N)Cc3c[nH]c4ccccc34)c(O)c2C(=O)C2=C(O)[C@]3(O)C(O)=C(C(N)=O)C(=O)[C@@H](N(C)C)C3[C@@H](O)C21 (stereo partly specified) : 16

The reported MIC of the compound C[C@H]1c2ccc(NC(=O)CN(C)C)c(O)c2C(=O)C2=C(O)[C@]3(O)C(O)=C(C(N)=O)C(=O)[C@@H](N(C)C)C3[C@@H](O)C21 (stereo partly specified) was 4

The reported MIC of the compound CC(C)[C@H](N)C(=O)Nc1ccc2c(c1O)C(=O)C1=C(O)[C@]3(O)C(O)=C(C(N)=O)C(=O)[C@@H](N(C)C)C3[C@@H](O)C1[C@H]2C (stereo partly specified) was 8

The reported MIC of the compound C[C@H]1c2ccc(NC(=O)[C@@H](N)CCCCN)c(O)c2C(=O)C2=C(O)[C@]3(O)C(O)=C(C(N)=O)C(=O)[C@@H](N(C)C)C3[C@@H](O)C21 (stereo partly specified) was 16

The reported MIC of the compound C[C@H]1c2ccc(NC(=O)[C@@H](N)CC3CCCCC3)c(O)c2C(=O)C2=C(O)[C@]3(O)C(O)=C(C(N)=O)C(=O)[C@@H](N(C)C)C3[C@@H](O)C21 (stereo partly specified) was 2

###

tested on: Escherichia coli; experiment: In vitro antibacterial activity was measured on gram negative bacteria Escherichia coli J3272 tet-D(efflux resistance) cell lines; type: functional
endpoint label: MIC (µg/mL)
Write the answer as a number in µg/mL, unit excluded.

Worked examples, 2 molecules total:
1) C[C@H]1c2ccc(NC(=O)[C@@H](N)Cc3ccccc3)c(O)c2C(=O)C2=C(O)[C@]3(O)C(O)=C(C(N)=O)C(=O)[C@@H](N(C)C)C3[C@@H](O)C21 (stereo partly drawn) : 1
2) CC(C)C[C@H](N)C(=O)Nc1ccc2c(c1O)C(=O)C1=C(O)[C@]3(O)C(O)=C(C(N)=O)C(=O)[C@@H](N(C)C)C3CC1C2 (stereo partly drawn) : 1

Now take the following molecule into account.
The reported MIC of the molecule CN[C@@H](CC(C)C)C(=O)Nc1ccc2c(c1O)C(=O)C1=C(O)[C@]3(O)C(O)=C(C(N)=O)C(=O)[C@@H](N(C)C)C3[C@@H](O)C1[C@H]2C (stereo partly drawn) was 2
